# Test Protocol: Single dose oral PK study in male Sprague Dawley rats (plasma by LC-MS/MS)
# Assay type: in vivo
# Run Conditions: male, Sprague Dawley, rat, in vivo, po, 5 mg/kg, single oral dose 5 mg/kg body weight, individual animals (R0175, R0176, R0177), plasma; read-out: T1/2 (converted)
Measured Attribute: half-life (h)
Hi! Could you send only the number? It should be in h, unit omitted.

Given CCN[C@H]1[C@H]2CC[C@H](C2)[C@@H]1c1ccccc1 [PRX-002 (+) Isomer, reference compound] , state its recorded half-life. 1.07

====

# Test Protocol: Single dose intravenous PK study in male Sprague Dawley rats (plasma by LC-MS/MS)
# Assay type: in vivo
# Run Conditions: male, Sprague Dawley, rat; IV 15 mg/kg (footnote *), analyte: prodrug in plasma, mean; read-out: IV PK Parameters Tmax, Prodrug
Measured Attribute: Tmax (min)
Hi! Could you send only the number? It should be in min, unit omitted.

Given CCCCCCCCCCCCCCCCCC(=O)OC(C)OC(=O)N(CC)C1C2CCC(C2)C1c1ccccc1 (single isomer, unassigned) , state its recorded Tmax. 4.8

====

# Test Protocol: Single dose intravenous PK study in male Sprague Dawley rats (plasma by LC-MS/MS)
# Format: in vivo
# Run Conditions: male, Sprague-Dawley, rat, plasma, iv, 2 mg/kg, PRX-P5-006 IV 2 mg/kg b.w., individual animals; read-out: AUCinf of PRX-P5-006
Measured Attribute: AUC(0-inf)

Given CCCCCCCCCCCCCCCCCC(=O)OC(C)OC(=O)N(CC)C1C2CCC(C2)C1c1ccccc1 (single isomer, unassigned) [PRX-P5-006] , state its recorded AUC(0-inf). 5590 ng·h/mL

====

# Test Protocol: Single dose oral PK study in male Sprague Dawley rats (plasma by LC-MS/MS)
# Assay type: in vivo
# Run Conditions: male, Sprague-Dawley, rat, in vivo, po, 5 mg/kg, PRX-P6-011 oral 5 mg/kg, mean; read-out: T1/2 of PRX-P6-011 (converted)
Measured Attribute: half-life (h)
Hi! Could you send only the number? It should be in h, unit omitted.

Given CCN(C(=O)[C@@H](NC(=O)[C@@H](N)C(C)C)C(C)C)C1C2CCC(C2)C1c1ccccc1 (single isomer, unassigned) [PRX-P6-011] , state its recorded half-life. 1.17

====

# Test Protocol: Single dose intravenous PK study in male Sprague Dawley rats (plasma by LC-MS/MS)
# Format: in vivo
# Run Conditions: male, Sprague-Dawley, rat, plasma, iv, 2 mg/kg, PRX-P5-011 IV 2 mg/kg b.w., 4.00 h, individual animals
Measured Attribute: concentration at 4 h
Answer with the number, then the unit.

Given CCCCCCCCCCCCCCCCCC(=O)OC(C)OC(=O)N(CC)C1C2CCC(C2)C1c1ccccc1 (single isomer, unassigned) [PRX-P5-011] , state its recorded concentration at 4 h. 0 ng/mL

====

# Test Protocol: Single dose intravenous PK study in male Sprague Dawley rats (plasma by LC-MS/MS)
# Format: in vivo
# Run Conditions: male, Sprague-Dawley, rat, plasma, iv, 2 mg/kg, PRX-P5-011 IV 2 mg/kg b.w., 0.08 h, mean
Measured Attribute: concentration at 0.08 h (ng/mL)
Hi! Could you send only the number? It should be in ng/mL, unit omitted.

Given CCCCCCCCCCCCCCCCCC(=O)OC(C)OC(=O)N(CC)C1C2CCC(C2)C1c1ccccc1 (single isomer, unassigned) , state its recorded concentration at 0.08 h. 110

====

# Test Protocol: Single dose oral PK study in male Sprague Dawley rats (plasma by LC-MS/MS)
# Type: in vivo
# Run Conditions: male, Sprague Dawley, rat, in vivo, po, 5 mg/kg, PRX-002 (−) Isomer oral 5 mg/kg, mean; read-out: T1/2 of PRX-002 (−) Isomer (converted)
# Description: We describe here PK results of prodrugs of PRX-002 (−) or (+) isomers. All doses of prodrugs were administered such that they were equivalent to 5 mg/kg of PRX-002 (−) or (+) for oral studies and 2 mg/kg PRX-002 (−) or (+) for intravenous studies in male Sprague-Dawley (MSD) rats. Higher doses of up to 10 or 15 mg/kg [again equivalent to PRX-002 (−)] were used in some studies (as specified)]. Formulation preparation, dose administration and time of sample collection was as follows. […]
Measured Attribute: half-life
Answer with the number, then the unit.

Given CCN[C@@H]1[C@@H]2CC[C@@H](C2)[C@H]1c1ccccc1 [PRX-002 (−) Isomer, reference compound] , state its recorded half-life. 1.86 h

====

# Test Protocol: Single dose intravenous PK study in male Sprague Dawley rats (plasma by LC-MS/MS)
# Format: in vivo
# Run Conditions: male, Sprague Dawley, rat, plasma, iv, 2 mg/kg, PRX-P5-006 IV 2 mg/kg, mean; read-out: AUClast of PRX-P5-006
Measured Attribute: AUC(0-t) (ng·h/mL)
Hi! Could you send only the number? It should be in ng·h/mL, unit omitted.

Given CCCCCCCCCCCCCCCCCC(=O)OC(C)OC(=O)N(CC)C1C2CCC(C2)C1c1ccccc1 (single isomer, unassigned) [PRX-P5-006] , state its recorded AUC(0-t). 4270

====

# Test Protocol: Single dose oral PK study in male Sprague Dawley rats (plasma by LC-MS/MS)
# Assay type: in vivo
# Run Conditions: male, Sprague Dawley, rat, in vivo; PRX-002 (−) Isomer oral 5 mg/kg, mean; read-out: Tmax of PRX-002 (−) Isomer
Measured Attribute: Tmax (min)
Hi! Could you send only the number? It should be in min, unit omitted.

Given CCN[C@@H]1[C@@H]2CC[C@@H](C2)[C@H]1c1ccccc1 [PRX-002 (−) Isomer, reference compound] , state its recorded Tmax. 50

====

# Test Protocol: Single dose intravenous PK study in male Sprague Dawley rats (plasma by LC-MS/MS)
# Format: in vivo
# Run Conditions: male, Sprague-Dawley, rat, plasma, iv, 2 mg/kg, PRX-P5-006 IV 2 mg/kg b.w., individual animals; read-out: C0 of PRX-P5-006
Measured Attribute: C0 (ng/mL)
Hi! Could you send only the number? It should be in ng/mL, unit omitted.

Given CCCCCCCCCCCCCCCCCC(=O)OC(C)OC(=O)N(CC)C1C2CCC(C2)C1c1ccccc1 (single isomer, unassigned) , state its recorded C0. 36200

====

# Test Protocol: Single dose oral PK study in male Sprague Dawley rats (plasma by LC-MS/MS)
# Type: in vivo
# Run Conditions: male, Sprague-Dawley, rat, in vivo; PRX-P5-011 oral (5 mg/kg equivalent), 4.00 h, individual animals; read-out: Plasma concentration of PRX-P5-011
Measured Attribute: concentration at 4 h (µg/mL)
Hi! Could you send only the number? It should be in µg/mL, unit omitted.

Given CCCCCCCCCCCCCCCCCC(=O)OC(C)OC(=O)N(CC)C1C2CCC(C2)C1c1ccccc1 (single isomer, unassigned) , state its recorded concentration at 4 h. 0

====

# Test Protocol: Single dose intravenous PK study in male Sprague Dawley rats (plasma by LC-MS/MS)
# Type: in vivo
# Run Conditions: male, Sprague Dawley, rat, plasma, iv, 2 mg/kg, single IV dose 2 mg/kg b.w., mean plasma PK parameters (Table 39.27); read-out: MRTlast
Measured Attribute: MRT last
Answer with the number, then the unit.

Given CCN[C@H]1[C@H]2CC[C@H](C2)[C@@H]1c1ccccc1 [PRX-002 (+) Isomer, reference compound] , state its recorded MRT last. 1.05 h

====

# Test Protocol: Single dose oral PK study in male Sprague Dawley rats (plasma by LC-MS/MS)
# Format: in vivo
# Run Conditions: male, Sprague Dawley, rat, in vivo, po, 5 mg/kg, single oral dose 5 mg/kg body weight, individual animals (R0175, R0176, R0177), plasma; read-out: MRTlast
Measured Attribute: MRT last (h)
Hi! Could you send only the number? It should be in h, unit omitted.

Given CCN[C@H]1[C@H]2CC[C@H](C2)[C@@H]1c1ccccc1 [PRX-002 (+) Isomer, reference compound] , state its recorded MRT last. 1.26

====

# Test Protocol: Single dose intravenous PK study in male Sprague Dawley rats (plasma by LC-MS/MS)
# Assay type: in vivo
# Run Conditions: male, Sprague-Dawley, rat, plasma, iv, 2 mg/kg, PRX-P5-011 IV 2 mg/kg b.w., 0.50 h, individual animals
# Description: We describe here PK results of prodrugs of PRX-002 (−) or (+) isomers. All doses of prodrugs were administered such that they were equivalent to 5 mg/kg of PRX-002 (−) or (+) for oral studies and 2 mg/kg PRX-002 (−) or (+) for intravenous studies in male Sprague-Dawley (MSD) rats. Higher doses of up to 10 or 15 mg/kg [again equivalent to PRX-002 (−)] were used in some studies (as specified)]. […] The plasma concentrations of fencamfamine were measured by LC-MS/MS over time. […]
Measured Attribute: concentration at 0.5 h (ng/mL)
Hi! Could you send only the number? It should be in ng/mL, unit omitted.

Given CCCCCCCCCCCCCCCCCC(=O)OC(C)OC(=O)N(CC)C1C2CCC(C2)C1c1ccccc1 (single isomer, unassigned) , state its recorded concentration at 0.5 h. 0
